Here the recorded TGI is given for each entry.
# System: CCRF-CEM leukemia
# METHOD NOTES: NCI tumour cell line growth inhibition, 48 h
Kindly answer with a numeric value in µM, unit omitted.

// query Indicate the recorded TGI value for this compound: CCCCCCCCCCCCCCCCOCC(CP(=O)([O-])OCC[n+]1ccccc1)OC (stereo not given)
// result 25.6

// query Indicate the recorded TGI value for this compound: COC(=O)CN1SC2(SC13C(C)(C)C(=O)C3(C)C)C(C)(C)C(=O)C2(C)C
// result 32.8

----------
# System: OVCAR-4 ovarian
# METHOD NOTES: NCI tumour cell line growth inhibition, 48 h
MEASURED ATTRIBUTE: TGI

{"MOLECULE": "Cn1ccc2c(C(=O)c3ccccc3)cccc2c1=O", "REPORTED RESULT": "> 100 µM"}

Kindly review the next molecule as well.
// query Recall the reported TGI of O=P(CCCCP(=O)(c1ccccc1)c1ccccc1)(c1ccccc1)c1ccccc1.[Cl][Sn]([Cl])([c]1ccccc1)[c]1ccccc1 when tested on OVCAR-4 ovarian.
// result 3 µM

Reference source for all entries: PubChem BioAssay (NCI)
